# target desc: Cytochrome P450 2C19 (Homo sapiens)
# assay: qHTS Assay for Inhibitors and Substrates of Cytochrome P450 2C19 (AID 899); further: nearly all actives have a fitted effect of over 60% in size
# test conditions: recombinant CYP2C19, luciferin-H EGE luminescence; series mostly up to 57.1 µM
Records with an inconclusive call do not appear. Activity calls are given as the source filed them. The call rests on the fitted dose curve; in most records, active means well fitted inhibition curve with a large enough effect; inconclusive means small, poorly fitted or top-dose-only effect; inactive means no such curve, though single readings can be large or run the other way.
Answer with one of the outcomes true (1) (active), false (0) (inactive)

Please review the entries below; each comes with its answer.
{"compound": "C[C@@H](C(=O)NCc1ccccn1)[C@H]1C[C@]1(C)[C@H](NC(=O)OCc1ccccc1)c1ccccc1", "target desc": "Cytochrome P450 2C19 (Homo sapiens)", "assigned category": "true (1)"}
{"compound": "COc1cc(O)c2c(=O)cc(-c3ccccc3)oc2c1", "target desc": "Cytochrome P450 2C19 (Homo sapiens)", "assigned category": "true (1)"}
{"compound": "CC(C)C[C@@H](CC(=O)N[C@@H](CCCN)CC(=O)N[C@@H]1CCCC[C@H]1C(=O)N[C@H](CC(=O)N[C@@H](CCC(=O)O)CC(=O)O)CC(C)C)NC(=O)[C@@H]1CNCC[C@H]1N", "target desc": "Cytochrome P450 2C19 (Homo sapiens)", "assigned category": "false (0)"}
{"compound": "COc1ccccc1-c1cc(=O)c2cc(O)ccc2o1", "target desc": "Cytochrome P450 2C19 (Homo sapiens)", "assigned category": "true (1)"}
{"compound": "NCCC[C@@H](CC(=O)N[C@@H]1CCNC[C@H]1C(=O)N[C@H](CC(=O)N[C@@H](CCC(=O)O)CC(=O)O)Cc1c[nH]c2ccccc12)NC(=O)C[C@H](Cc1ccccc1)NC(=O)[C@@H]1CCCC[C@H]1N", "target desc": "Cytochrome P450 2C19 (Homo sapiens)", "assigned category": "false (0)"}
{"compound": "NCCC[C@@H](CC(=O)N[C@@H]1CCNC[C@H]1C(=O)N[C@H](CC(=O)N[C@@H](CCC(=O)O)CC(=O)O)Cc1ccccc1)NC(=O)C[C@H](Cc1c[nH]c2ccccc12)NC(=O)[C@@H]1CNCC[C@H]1N", "target desc": "Cytochrome P450 2C19 (Homo sapiens)", "assigned category": "false (0)"}
{"compound": "O=C1C=CC2=C3c4cc(O)c(O)cc4C[C@@]3(O)COC2=C1O", "target desc": "Cytochrome P450 2C19 (Homo sapiens)", "assigned category": "true (1)"}
{"compound": "NC(=O)/C(=C\\c1ccncc1)c1cccc2ccccc12", "target desc": "Cytochrome P450 2C19 (Homo sapiens)", "assigned category": "true (1)"}
{"compound": "O=C(NCCc1c[nH]c2ccccc12)[C@H]1C[C@@H]1[C@H](NP(=O)(c1ccccc1)c1ccccc1)c1ccccc1", "target desc": "Cytochrome P450 2C19 (Homo sapiens)", "assigned category": "true (1)"}
{"compound": "C/C(=C\\COc1cc(=O)[nH]c2ccccc12)CC[C@@H](O)C(C)(C)O", "target desc": "Cytochrome P450 2C19 (Homo sapiens)", "assigned category": "false (0)"}

Query: recorded result category for `CC(C)C[C@@H](CC(=O)N[C@H](CC(=O)N[C@@H]1CCNC[C@H]1C(=O)N[C@H](CC(=O)N[C@@H](CCC(=O)O)CC(=O)O)CC(C)C)C(C)C)NC(=O)[C@@H]1CNCC[C@H]1N` in this test
false (0)

For `C[C@@H](C(=O)O)[C@H]1C[C@]1(C)[C@H](NC(=O)OCc1ccccc1)c1ccccc1` then?
true (1)

For CCCC/C=C/C(NC(=O)c1ccccc1)c1ccccc1 (centres undefined) then?
true (1)

For `Cn1ccc(O)c(C#N)c1=O` then?
false (0)
